Would you kindly list melting point for each of these compounds?

Worked examples, 3 compounds total:
The reported value for O=C(Cc1cc[n+]([O-])cc1)N1CCC([C@@H]2c3ccc(Cl)cc3C=Cc3cc(Br)c[n+]([O-])c32)CC1 [Example 15] in terms of melting point is 125.5 to 126.3 °C

The reported value for NC(=O)N1CCC(CC(=O)N2CCC([C@@H]3c4ccc(Cl)cc4CCc4cc(Br)c[n+]([O-])c43)CC2)CC1 [Example 12] in terms of melting point is 146.8 to 147.4 °C

The reported value for O=C(Cc1cc[n+]([O-])cc1)N1CCC([C@H]2c3ccc(Cl)cc3C=Cc3cc(Br)c[n+]([O-])c32)CC1 [Example 14] in terms of melting point is 109 to 110 °C

---
The reported value for NC(=O)N1CCC(CC(=O)N2CCC([C@H]3c4ccc(Cl)cc4CCc4cc(Br)c[n+]([O-])c43)CC2)CC1 [Example 13] in terms of melting point is 120 to 121 °C

Recorded values, source patent US6576639B1.
